Listed here are binders together with their documented stoichiometry N.
# TARGET_OR_TEST_SYSTEM: yeast histone H2A-H2B dimer (Saccharomyces cerevisiae) (UniProt P04911)
# EXPERIMENT_SUMMARY: ITC; ITC200 at 20 °C; 0.5 mM ARB2 or mutant in the injector, 0.2 mM H2A/B or 0.25 mM H3/4 in the sample cell; 25 mM Tris-HCl pH 7.5, 200 mM NaCl; single-site fitting model
Just the number, please.

Check out these entries, answers already filled in.
>  <BINDER>
ARB2-M3 (residues Val481, Ser482, Met483 and Asp484 mutated to Ala) (domain or fragment) LQKAIRQQQQHYLSDEFNFVTLPLAAAALPDNTVLCTPNISESNTIIIVVHDTSDIWAKRNVISGTIDLSSSVIIDNSLDFIKWGLDRKYGIIDVNIPLTLFEPDNYSGMITSQEVLIYLWDNYIKYFPSVAKIAFIGIGDSYSGIVHLLGHRDTRAVTKTVINFLGDKQLKPLVPLVDETLSEWYFKNSLIFSNNSHQCWKENESRKPRKKFGRVLRCDTDGLNNIIEERFEEATDFILDS

>  <stoichiometry N>
0.74

$$$$
>  <BINDER>
ARB2-M2 (residues Tyr468 and Glu472 mutated to Ala) (domain or fragment) LQKAIRQQQQHALSDAFNFVTLPLVSMDLPDNTVLCTPNISESNTIIIVVHDTSDIWAKRNVISGTIDLSSSVIIDNSLDFIKWGLDRKYGIIDVNIPLTLFEPDNYSGMITSQEVLIYLWDNYIKYFPSVAKIAFIGIGDSYSGIVHLLGHRDTRAVTKTVINFLGDKQLKPLVPLVDETLSEWYFKNSLIFSNNSHQCWKENESRKPRKKFGRVLRCDTDGLNNIIEERFEEATDFILDS

>  <stoichiometry N>
0.64

$$$$
>  <BINDER>
ARB2 domain of Hda1 (Hda1^457–698) (domain or fragment) LQKAIRQQQQHYLSDEFNFVTLPLVSMDLPDNTVLCTPNISESNTIIIVVHDTSDIWAKRNVISGTIDLSSSVIIDNSLDFIKWGLDRKYGIIDVNIPLTLFEPDNYSGMITSQEVLIYLWDNYIKYFPSVAKIAFIGIGDSYSGIVHLLGHRDTRAVTKTVINFLGDKQLKPLVPLVDETLSEWYFKNSLIFSNNSHQCWKENESRKPRKKFGRVLRCDTDGLNNIIEERFEEATDFILDS

>  <stoichiometry N>
0.78

$$$$
>  <BINDER>
ARB2-M1 (residues Gln463, His467 and Asp471 mutated to Ala) (domain or fragment) LQKAIRAQQQAYLSAEFNFVTLPLVSMDLPDNTVLCTPNISESNTIIIVVHDTSDIWAKRNVISGTIDLSSSVIIDNSLDFIKWGLDRKYGIIDVNIPLTLFEPDNYSGMITSQEVLIYLWDNYIKYFPSVAKIAFIGIGDSYSGIVHLLGHRDTRAVTKTVINFLGDKQLKPLVPLVDETLSEWYFKNSLIFSNNSHQCWKENESRKPRKKFGRVLRCDTDGLNNIIEERFEEATDFILDS

>  <stoichiometry N>
0.77

$$$$

Kindly review the next binder as well.
May I ask what stoichiometry N has been recorded for ARB2-M4 (residues His604, His608 and Arg609 mutated to Ala) (domain or fragment) LQKAIRQQQQHYLSDEFNFVTLPLVSMDLPDNTVLCTPNISESNTIIIVVHDTSDIWAKRNVISGTIDLSSSVIIDNSLDFIKWGLDRKYGIIDVNIPLTLFEPDNYSGMITSQEVLIYLWDNYIKYFPSVAKIAFIGIGDSYSGIVALLGAADTRAVTKTVINFLGDKQLKPLVPLVDETLSEWYFKNSLIFSNNSHQCWKENESRKPRKKFGRVLRCDTDGLNNIIEERFEEATDFILDS ?
0.8
